- Test system: K-562 leukemia
- Protocol Description: NCI tumour cell line growth inhibition, 48 h
*1 amine or outer side, *2 acyl side, *3 side chain or, on linkers, in order; H or OH if unused. Where a SMILES comes first, the peptide text is derived from it. [ ]: non-standard residue; d: D form. The star is where a group is joined. ξ: configuration not given here. X27 = O=C([C@H]1CCC[C@H]1N[*:1])[*:2]; ξW = NC(Cc1c[nH]c2ccccc12)C(=O)O; ξF = NC(Cc1ccccc1)C(=O)O; Boc = CC(C)(C)OC(=O)*; ξK = NCCCCC(N)C(=O)O; ξT = CC(O)C(N)C(=O)O; tBu = CC(C)(C)*
Experimental Endpoint: TGI

In: Could you tell me which TGI is on file for `O=C1C(Cl)=C(Sc2nnc3c4ccccc4c4ccccc4c3n2)C(=O)c2ccccc21` ?
Out: > 59.3 µM

In: Request: CC(OC(C)(C)C)C1NC(=O)C(CCCCNC(=O)OC(C)(C)C)NC(=O)C(Cc2c[nH]c3ccccc23)NC(=O)C(Cc2ccccc2)NC(=O)[C@H]2CCC[C@H]2NC(=O)C(Cc2ccccc2)NC1=O (some centres undefined) (cyclo([X27][ξF][ξW][ξK](Boc)[ξT](tBu)[ξF]))
Out: > 100 µM

In: Request: COc1cccc(CCC2CCCN(c3cc(C)nc(N)n3)C2)c1 (centres undefined)
Out: 10.6 µM

In: Request: COc1nc2ccc(COc3ccc(C(=O)NC(CCC(=O)O)C(=O)O)cc3)cc2nc1OC (centres undefined)
Out: > 10 µM

In: Request: COC(=O)/C(=N\NC(N)=O)C(C(=O)C(=O)Nc1ccccc1OC)c1nc2ccc([N+](=O)[O-])cc2[nH]c1=O (centres undefined)
Out: > 100 µM

In: Request: `CCN(CC)CCNc1ccc(C)c2sc3cc(Cl)ccc3c(=O)c12`
Out: 3.44 µM

In: Request: `C[C@]12CC[C@@H]3c4cc(OC(F)F)c(O)cc4CC[C@H]3[C@@H]1CC[C@@H]2OS(N)(=O)=O`
Out: > 100 µM

In: Request: CCCCCC1CC=CC(=O)O1 (centres undefined)
Out: 42.7 µM

In: Request: `CC(C)(C)c1cc(-c2cc(C(C)(C)C)[nH]n2)n[nH]1`
Out: > 100 µM

In: Request: O=[N+]([O-])c1ccc(C2CC(c3ccccc3Cl)=Nc3ccccc3S2)cc1 (centres undefined)
Out: 6.35 µM

In: Request: `O=C1/C(=N\O)c2ccccc2S1(=O)=O`
Out: > 100 µM

In: Request: CN(C)CCCC1c2ccccc2Oc2ccc(C(F)(F)F)cc21 (centres undefined)
Out: 18.3 µM

In: Request: `O=Cc1c2n(c3ccccc13)N[C@@](Cc1ccc(O)cc1)(C(=O)O)C2`
Out: > 100 µM

In: Request: `NC(=S)N/N=C/c1nccc2ccccc12`
Out: > 100 µM

In: Request: COc1ccc(CC2C3=C(CCN2C(=O)C2CCC2)CC2(CC3)OCCO2)cc1O (centres undefined)
Out: 84.4 µM

In: Request: `COc1c(O)c(OC)c2oc(-c3ccc(O)c(O)c3)c(OC)c(=O)c2c1O`
Out: > 100 µM

In: Request: `c1ccc2c(CN3CCN(Cc4c[nH]c5ccccc45)CC3)c[nH]c2c1`
Out: 39.7 µM

In: Request: C=C=C(C(=O)OC)S(=O)c1ccccc1[N+](=O)[O-] (centres undefined)
Out: > 100 µM

In: Request: CC(=O)OCC(OC(C)=O)C(OC(C)=O)C(/C=N\Nc1nc2ccccc2c(=O)[nH]1)=N\Nc1nc2ccccc2c(=O)[nH]1 (centres undefined)
Out: > 100 µM
